Below: a set of entries, each annotated with reported pIC50.
# experimental system: indoleamine 2,3-dioxygenase (IDO) (Homo sapiens, UniProt P14902)
# Sequence (P14902 whole entry): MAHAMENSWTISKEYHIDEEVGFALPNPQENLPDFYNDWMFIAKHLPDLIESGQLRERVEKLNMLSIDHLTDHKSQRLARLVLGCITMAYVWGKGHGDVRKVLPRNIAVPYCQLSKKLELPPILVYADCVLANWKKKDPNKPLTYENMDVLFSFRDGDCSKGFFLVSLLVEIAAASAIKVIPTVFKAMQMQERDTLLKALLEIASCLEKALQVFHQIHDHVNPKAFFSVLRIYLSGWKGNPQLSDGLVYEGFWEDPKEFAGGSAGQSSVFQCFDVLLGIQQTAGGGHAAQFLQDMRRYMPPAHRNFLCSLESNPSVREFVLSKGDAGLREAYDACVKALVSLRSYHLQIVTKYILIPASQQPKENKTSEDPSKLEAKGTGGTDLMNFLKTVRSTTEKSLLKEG
# assay procedure: HeLa cell-based indoleamine 2,3-dioxygenase (IDO) assay (kynurenine production, IFNγ-stimulated)
# conditions: HeLa cells; potency class; read-out: Patent Potency Hela IC50 A < 10 nM, B > 10 nM, C > 100 nM
pIC50: −log10 of the molar value.

CCC(NC(=O)c1ccc(=O)[nH]c1)[C@H]1CC[C@@H](c2ccnc(OC)c2C(F)F)CC1 (stereo partly drawn) [Example 63-2]	< 8.00

Input line: State, for indoleamine 2,3-dioxygenase (IDO) (Homo sapiens, UniProt P14902), measured pIC50 of the compound listed here: CCC(NC(=O)c1ccc(OC)nc1)C1CCC(c2ccnc3c(C(F)(F)F)cccc23)CC1 (single isomer, unassigned) [Example 18b]
Output line: > 8.00

Input line: Answer briefly: pIC50 recorded on indoleamine 2,3-dioxygenase (IDO) (Homo sapiens, UniProt P14902) for COc1ccc(C(=O)N[C@H](CC2(C)COC2)[C@H]2CC[C@@H](c3ccnc4ccc(C(F)(F)F)cc43)CC2)cn1 (single isomer, unassigned) [Example 17d]
Output line: < 7.00
